system: PC49; assay: qHTS profiling for inhibitors of Plasmodium falciparum proliferation (AID 504749); also: nearly all actives have a fitted effect of over 60% in size; also: potency is read from the fitted curve at half-maximal effect; conditions: P. falciparum in erythrocytes, SYBR Green DNA, 72 h; series mostly up to 12.8 µM
Results filed as inconclusive are left out. The source made the active and inactive calls. Calls follow the shape of the dose curve; as a rule, active = well fitted inhibition curve with a large enough effect; inconclusive = small, poorly fitted or top-dose-only effect; inactive = flat fitted curve, though single readings scatter.
assay_endpoint: Potency

Example compounds with recorded Potency:
[
  {
    "compound": "O=C(Nc1ccccc1)OC[C@H](CN1CCCCC1)OC(=O)Nc1ccccc1",
    "value_measured": "inactive"
  },
  {
    "compound": "CCC(=O)O[C@@H]1[C@H](C)O[C@H](O[C@H]2[C@@H](N(C)C)[C@H](O)[C@@H](O[C@@H]3[C@@H](CC=O)C[C@@H](C)[C@@H](O)/C=C\\C=C/C[C@@H](C)OC(=O)C[C@@H](OC(=O)CC)[C@H]3OC)O[C@H]2C)C[C@]1(C)O",
    "value_measured": "inactive"
  },
  {
    "compound": "NCC1CCC(N)C(O[C@@H]2C(O)[C@H](O[C@H]3OC(CO)C(O)C(N)C3O)[C@@H](N)C[C@H]2N)O1 (stereo partly specified)",
    "value_measured": "inactive"
  },
  {
    "compound": "NC[C@@H]1O[C@H](O[C@@H]2[C@H](O[C@@H]3O[C@H](CO)[C@@H](O)[C@@H]3O)[C@@H](O)[C@@H](N)C[C@H]2N)[C@@H](N)[C@H](O)[C@@H]1O",
    "value_measured": "inactive"
  },
  {
    "compound": "Cn1nnnc1SCC1=C(C(=O)O)N2C(=O)[C@@H](NC(=O)[C@@H](O)c3ccccc3)[C@@H]2SC1",
    "value_measured": "inactive"
  }
]

Next compound, Potency to be filled in.
Give the measured Potency of COc1cc(C2c3cc4c(cc3C(O[C@@H]3OC5COC(c6cccs6)OC5C(O)C3O)C3COC(=O)C23)OCO4)cc(OC)c1O (stereo partly specified) .
4.47 µM (active)

###

tested on: W2; test: qHTS profiling for inhibitors of Plasmodium falciparum proliferation (AID 504749); also: nearly all actives have a fitted effect of over 60% in size; conditions: P. falciparum in erythrocytes, SYBR Green DNA, 72 h; series mostly up to 12.8 µM
Inconclusive results are not listed. The source made the active and inactive calls. Calls follow the shape of the dose curve; as a rule, active = well fitted inhibition curve with a large enough effect; inconclusive = small, poorly fitted or top-dose-only effect; inactive = flat fitted curve, though single readings scatter.
Answer with one of the outcomes 1 (yes) = active, 0 (no) = inactive

Solved cases below.
[
  {
    "compound": "CC(C)Oc1ccc2c(=O)cc(-c3ccccc3)oc2c1",
    "class_name": "1 (yes)"
  },
  {
    "compound": "COc1ccc2cc1Oc1ccc(cc1)CC1c3c(cc4c(c3Oc3cc5c(cc3OC)CCN(C)C5C2)OCO4)CCN1C (stereo unspecified)",
    "class_name": "1 (yes)"
  },
  {
    "compound": "CC(=O)O[C@@]1(C(C)=O)CCC2C3CC(C)C4=CC(=O)CC[C@@]4(C)C3CC[C@]21C (stereo partly specified)",
    "class_name": "0 (no)"
  },
  {
    "compound": "Clc1ccc(CC[C@H](Cn2ccnc2)Sc2c(Cl)cccc2Cl)cc1",
    "class_name": "1 (yes)"
  },
  {
    "compound": "C=Cc1c(C)c2cc3nc(cc4[nH]c(cc5nc(cc1[nH]2)C(C)=C5CCC(=O)O)c(CCC(=O)OC)c4C)[C@@]1(C)C3=CC=C(C(=O)OC)[C@H]1C(=O)OC (tested in a mixture with another compound)",
    "class_name": "1 (yes)"
  }
]

Please turn your attention to the following entry.
Hey, what did the test say about CCN[C@@H]1CN(CCCOC)S(=O)(=O)c2sc(S(N)(=O)=O)cc21 ?
0 (no)
